experiment: Solubility in solvents pre-saturated with aqueous buffer at 55° C.; assay type: physicochemical; settings: organic solvent or mixture; nitrobenzene pre-saturated with aqueous buffer, 55° C.

compound	solubility
OC[C@H]1O[C@H](O[C@]2(CCl)O[C@H](CCl)[C@@H](O)[C@@H]2O)[C@H](O)[C@@H](O)[C@H]1Cl [sucralose]	< 10 mg/mL
OC1C(CCl)OC(OCC2OC(OC3(CCl)OC(CCl)C(O)C3O)C(O)C(O)C2Cl)C(O)C1O (centres unmarked) [TCR]	< 20 mg/mL

###

assay: Solubility in solvents pre-saturated with aqueous buffer at 55° C.; type: physicochemical; settings: organic solvent or mixture; ethyl acetate pre-saturated with aqueous buffer, 55° C.
Measured solubility of individual entries
metric: solubility (mg/mL)

molecule	metric	inequality_sign	recorded_measurement
OC1C(CCl)OC(OCC2OC(OC3(CCl)OC(CCl)C(O)C3O)C(O)C(O)C2Cl)C(O)C1O (centres unmarked) [TCR]	solubility	>	500
OC[C@H]1O[C@H](O[C@]2(CCl)O[C@H](CCl)[C@@H](O)[C@@H]2O)[C@H](O)[C@@H](O)[C@H]1Cl [sucralose]	solubility	=	57
